# Test system: UniProt:P18031
# Sequence (P18031 whole entry): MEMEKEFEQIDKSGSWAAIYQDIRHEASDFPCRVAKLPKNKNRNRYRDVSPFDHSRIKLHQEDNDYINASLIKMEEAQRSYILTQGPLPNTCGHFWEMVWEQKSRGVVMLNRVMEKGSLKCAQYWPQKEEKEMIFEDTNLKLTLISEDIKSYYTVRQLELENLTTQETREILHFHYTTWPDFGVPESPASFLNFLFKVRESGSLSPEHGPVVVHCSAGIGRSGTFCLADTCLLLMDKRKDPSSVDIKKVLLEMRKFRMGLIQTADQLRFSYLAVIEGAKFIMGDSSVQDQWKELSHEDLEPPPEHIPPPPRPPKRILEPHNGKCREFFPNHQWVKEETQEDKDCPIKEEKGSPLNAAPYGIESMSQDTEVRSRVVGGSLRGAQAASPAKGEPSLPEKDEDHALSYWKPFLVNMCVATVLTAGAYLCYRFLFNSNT
# Test summary: Inhibition of recombinant human PTP1B catalytic domain assessed as hydrolysis of pNPP after 2 mins
Measurement type: pIC50
Numbers only, as −log10 of the molar value.

# count of solved cases: 5
* CCc1ccc(-c2ccc(-c3noc(Cc4c[nH]c5ccccc45)n3)s2)cc1 | 4.88
* CCCOc1ccc(-c2cccc(-c3noc(Cc4c[nH]c5ccccc45)n3)n2)cc1 | 5.02
* CCCOc1ccc(-c2ccc(-c3noc(Cc4c[nH]c5ccccc45)n3)s2)cc1 | 4.86
* CCOc1ccc(-c2cccc(-c3noc(Cc4c[nH]c5ccccc45)n3)c2)cc1 | 4.80
* CCOc1ccc(-c2cccc(-c3noc(Cc4c[nH]c5ccccc45)n3)n2)cc1 | 4.50

Give me pIC50 for each of these molecules, listed below.
1. Brc1cccc(-c2noc(Cc3c[nH]c4ccccc34)n2)c1
2. CCCCc1ccc(-c2ccc(-c3noc(Cc4c[nH]c5ccccc45)n3)s2)cc1
3. Cc1cccc(-c2cccc(-c3noc(Cc4c[nH]c5ccccc45)n3)n2)c1

Result block:
1: 4.71; 2: 5.05; 3: 4.66

* * *

# Test system: Tyrosine-protein phosphatase non-receptor type 1 (Homo sapiens)
# Test summary: Inhibition of recombinant human PTP1B catalytic domain assessed as hydrolysis of pNPP after 2 mins
Hi! Could you tag entries with IC50 below 20 µM as true (1), and those at or above as false (0)? Much appreciated.

These recorded examples may help you get a feel for the data.
• Nc1ccc(-c2ccc(-c3noc(Cc4c[nH]c5ccccc45)n3)s2)cc1 = false (0)
• CCCc1ccc(-c2cccc(-c3noc(Cc4c[nH]c5ccccc45)n3)c2)cc1 = false (0)
• Nc1ccc(-c2cccc(-c3noc(Cc4c[nH]c5ccccc45)n3)c2)cc1 = false (0)
• Oc1ccc(-c2cccc(-c3noc(Cc4c[nH]c5ccccc45)n3)c2)cc1 = false (0)
• CCCOc1ccc(-c2cccc(-c3noc(Cc4c[nH]c5ccccc45)n3)c2)cc1 = true (1)
• Brc1cccc(-c2noc(Cc3c[nH]c4ccccc34)n2)n1 = false (0)

We next turn to a different compound, shown below.
Query block: Is IC50 strictly under 20 µM for the entry CCCc1ccc(-c2ccc(-c3noc(Cc4c[nH]c5ccccc45)n3)s2)cc1 ?
Result block: true (1)

* * *

# Test system: UniProt:P18031
# Sequence (P18031 whole entry): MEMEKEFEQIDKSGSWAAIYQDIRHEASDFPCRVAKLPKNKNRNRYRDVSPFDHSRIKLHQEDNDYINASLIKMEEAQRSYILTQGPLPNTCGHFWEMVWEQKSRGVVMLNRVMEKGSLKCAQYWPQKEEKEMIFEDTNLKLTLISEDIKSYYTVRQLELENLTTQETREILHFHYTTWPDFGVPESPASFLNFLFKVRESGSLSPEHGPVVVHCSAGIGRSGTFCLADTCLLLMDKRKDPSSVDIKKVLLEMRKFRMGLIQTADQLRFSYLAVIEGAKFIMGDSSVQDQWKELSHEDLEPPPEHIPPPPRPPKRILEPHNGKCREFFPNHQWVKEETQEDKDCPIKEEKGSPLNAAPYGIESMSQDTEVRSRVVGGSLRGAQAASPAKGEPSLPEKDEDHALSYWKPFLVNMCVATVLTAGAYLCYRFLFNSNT
# Test summary: Inhibition of recombinant human PTP1B catalytic domain assessed as hydrolysis of pNPP after 2 mins
Note to self: IC50 under 20 µM means satisfied, ties and anything higher get not satisfied.

* COC(=O)CCCOc1ccc(-c2cccc(-c3noc(Cc4c[nH]c5ccccc45)n3)c2)cc1 | not satisfied
* Cc1ccccc1-c1cccc(-c2noc(Cc3c[nH]c4ccccc34)n2)n1 | not satisfied
* CCCCc1ccc(-c2cccc(-c3noc(Cc4c[nH]c5ccccc45)n3)c2)cc1 | satisfied
* CCCCc1ccc(-c2cccc(-c3noc(Cc4c[nH]c5ccccc45)n3)n2)cc1 | satisfied
* Cc1ccccc1-c1ccc(-c2noc(Cc3c[nH]c4ccccc34)n2)s1 | satisfied
* COC(=O)CCCOc1ccc(-c2ccc(-c3noc(Cc4c[nH]c5ccccc45)n3)s2)cc1 | not satisfied
* Cc1cccc(-c2cccc(-c3noc(Cc4c[nH]c5ccccc45)n3)c2)c1 | satisfied
* CCOc1ccc(-c2ccc(-c3noc(Cc4c[nH]c5ccccc45)n3)s2)cc1 | satisfied
* Cc1ccccc1-c1cccc(-c2noc(Cc3c[nH]c4ccccc34)n2)c1 | not satisfied
* Cc1cccc(-c2ccc(-c3noc(Cc4c[nH]c5ccccc45)n3)s2)c1 | not satisfied

API: the following record is the query input.
Query block: Lab log: compare recorded IC50 with 20 µM; is it strictly lower for Brc1ccc(-c2noc(Cc3c[nH]c4ccccc34)n2)s1 ?
Result block: satisfied
